Recorded values, source patent US10676429B2.

test system: HBV; assay: Anti-HBV activity in stable transfected HepG2.2.15 cell line (HBV DNA from secreted virions, realtime PCR); assay type: cell-based; settings: Hepatitis B virus, HepG2.2.15, 144 h, HepG2.2.15 cells, 6 days of treatment, secreted virion HBV DNA; read-out: HepG2 2.15 EC50
measurement.name: pEC50
One number for each entry, as −log10 of the molar value.

O=C(Nc1ccccc1)c1ccnc(S(=O)(=O)NC2CCCCC2)c1
5.37
O=C(Nc1ccc(F)cc1)c1ccc(Cl)c(S(=O)(=O)N2CCCCCC2)c1
6.18
Cc1cc(NC(=O)c2cc(Cl)cc(S(=O)(=O)N[C@H]3CCOC3)c2F)ccc1F
6.82
Cc1cc(NC(=O)c2cccc(S(=O)(=O)N[C@H]3CCOC3)c2)c(F)cc1F
5.65

Value sought for every listed compound: pEC50.
1. COC(=O)N1CCCC(NS(=O)(=O)c2cccc(C(=O)Nc3ccc(F)c(C)c3)c2)C1 (racemic)
2. Cc1cc(NC(=O)c2cccc(S(=O)(=O)N[C@H]3CCOC3)c2C)ccc1F
3. CC[C@@H](C)NS(=O)(=O)c1cccc(C(=O)Nc2ccc(F)c(C)c2)c1
4. CN(C)S(=O)(=O)c1ccc(F)c(C(=O)Nc2ccccc2)c1
5. O=C(Nc1ccccc1)c1cccc(S(=O)(=O)NC2CC2)c1

[out]
1: 6.82; 2: 5.86; 3: 7.00; 4: 4.87; 5: 5.51

Give measured pEC50 for every item shown.
1. O=C(Nc1ccc(F)cc1)c1cccc(S(=O)(=O)NC2CCCC2)c1
2. CC1(NS(=O)(=O)c2ccc(Cl)c(C(=O)Nc3ccc(F)c(F)c3)c2)COC1
3. O=C(Nc1ccccc1)c1c[nH]c(S(=O)(=O)NC2CCCCC2)n1
4. Cc1cc(NC(=O)c2cccc(S(=O)(=O)NC3CC4CCC3O4)c2)ccc1F (stereo not drawn)
5. Cc1cc(NC(=O)c2cccc(S(=O)(=O)NC3Cc4ccccc4C3)c2)ccc1F

[out]
1. 6.33
2. 6.14
3. 5.00
4. 6.64
5. 6.57
